target: T1, Foxp3-7 peptide/HLA-A*02:01 complex on the cell surface (human); assay: flow cytometry, phage on T2 + Foxp3-7 peptide; secondary only 318, unstained 95.8
T1 construct: also called Foxp3-7/HLA-A2 complex
Quantity name: Median:FITC-A
In your answer, state the number alone without any accompanying words.

Enquiry: Given the binder EXT017-54 scFv phage clone (scFv, full-length scFv with His+HA tags; also called EXT017-54 phage) scFv: QAVLTQPPSLSGGPRQRVTISCSGSTSNIGKNGVSWYQQLPGKAPKLLIYNDHLLSSGVSDRFSGSKSGTSASLAISGLQSDDEADYYCATWDDTLDLPLFGGGTKVTVLGSRGGGGSGGGGSGGGGSLEMAQMQLVQSGAEVEKPGASVKLSCKASGGTFSSYAISWVRQAPGQGLEWMGGIIPIFGTANYAQKFQGRVTITADESTSTAYMELSSLRSEDTAVYYCARPSYYSIKSAWDHWGQGTLVTVSSTSGQAGQHHHHHHGAYPYDVPDYAS , what is its reported Median:FITC-A?
Return: 732

Enquiry: For EXT017-27 scFv phage clone (scFv, full-length scFv with His+HA tags; also called EXT017-27 phage; phage clone #27) scFv: QAVLTQPPSVSVAPGKTARLTCGGNNIGSESVHWYQQKPGQAPLLVVYDDDDRPSGIPERFSGSNSGNTATLTISRVEAGDEADYYCQVWDRSSDHWFFGGGTKLTVLGSRGGGGSGGGGSGGGGSLEMAQVQLVQSGAEVKKPGASVKVSCKASGYTFTNYYIHWVRQAPGQGLEWMGIIRPSGGITNYAQKFQGRVSMTRDTSTSTVYMELSSLRSEDTAVYYCARSWDYFASNDFWGQGTLVTVSSTSGQAGQHHHHHHGAYPYDVPDYAS , what is its reported Median:FITC-A?
Return: 1940

Reference source: patent US20190284262A1
